Test system: SNB-19 CNS
ASSAY PROCEDURE: NCI tumour cell line growth inhibition, 48 h
RECORDED ENDPOINT: TGI (µM)
Only the number, expressed in µM, is required.

// worked examples, TGI included
[[record]]
compound = "COC(=O)/C=C1/OC(c2ccccc2)=CC1=O"
quantitative_readout = 32

[[record]]
compound = "O=[N+]([O-])c1ccc(N=Nc2c(O)[nH]c3ccc(Br)cc23)c([N+](=O)[O-])c1"
quantitative_readout = 17.1

[[record]]
compound = "CCCNc1c(Cl)cc(Cl)c2[nH]c3ccccc3c(=O)c12"
quantitative_readout = 65.7


Query compound follows.
Value of measured TGI for the entry C=C(CNCCc1ccc(O)cc1)[C@@H]1CC[C@]2(CO)CC[C@]3(C)[C@H](CC[C@@H]4[C@@]5(C)CCC(NCCO)C(C)(C)[C@@H]5CC[C@]43C)[C@@H]12 (some centres undefined) : 3.03

====

Test system: MALME-3M melanoma
ASSAY PROCEDURE: NCI tumour cell line growth inhibition, 48 h
RECORDED ENDPOINT: TGI (µM)
A number alone suffices; assume µM.

Recorded TGI, per entry:
[[record]]
molecule = "Oc1ccc(-c2nc(-c3ccc(F)cc3)c(-c3ccncc3)[nH]2)cc1"
unit_descriptor = "µM"
quantitative_readout = 9.13

[[record]]
molecule = "Cc1ccc2c(c1)C(=O)c1ccc(C)nc1C2=O"
unit_descriptor = "µM"
quantitative_readout = 52.5

[[record]]
molecule = "CC1=C(C(=O)Nc2cc(F)c(F)cc2F)C(c2cccc([N+](=O)[O-])c2)C(C(=O)Nc2ccccc2C(F)(F)F)=C(C)N1 (centres undefined)"
unit_descriptor = "µM"
quantitative_readout = 77.8


Continue with the molecule presented below.
Lab book: TGI of O=C1/C(=C\c2ccccc2)CN(C(=O)c2ccccc2F)C/C1=C\c1ccccc1 noted as 4.75

====

System: HCT-15 colon
ASSAY PROCEDURE: NCI tumour cell line growth inhibition, 48 h
RECORDED ENDPOINT: TGI

[[record]]
compound = "COc1ccc(C2=NN(c3ccc(S(N)(=O)=O)cc3)C(c3ccc(Cl)cc3)C2)c(O)c1 (stereo unspecified)"
recorded_endpoint = "TGI"
result = "13.9 µM"


# context switch: different compound, same TGI
compound CC(C)=CCC/C(C)=C/CC/C(C)=C/C(O)c1ccccc1 (stereo unspecified) , TGI observed: 32.8 µM

====

Test system: HCT-116 colon
ASSAY PROCEDURE: NCI tumour cell line growth inhibition, 48 h
Quick reference for TGI among some compounds
Respond numerically; units are µM and should not be typed.

Below: 5 compounds and their reported TGI.
[[record]]
compound = "O=[N+]([O-])c1ccc(N=Nc2c(O)[nH]c3ccc(Br)cc23)c([N+](=O)[O-])c1"
assayed_target = "HCT-116 colon"
recorded_endpoint = "TGI"
quantitative_readout = 3.09

[[record]]
compound = "CCOC(=O)c1c(C)n(-c2ccc(C)cc2)c2c1cc(O)c1[nH]c3c(c12)CCCC3"
assayed_target = "HCT-116 colon"
recorded_endpoint = "TGI"
quantitative_readout = 92.6

[[record]]
compound = "COc1ccc(C2=NN(c3ccc(S(N)(=O)=O)cc3)C(c3ccc(Cl)cc3)C2)c(O)c1 (stereo unspecified)"
assayed_target = "HCT-116 colon"
recorded_endpoint = "TGI"
quantitative_readout = 8.63

[[record]]
compound = "c1ccc2c(-c3ccnc(-c4c[nH]c5ccccc45)n3)c[nH]c2c1"
assayed_target = "HCT-116 colon"
recorded_endpoint = "TGI"
quantitative_readout = 15.4

[[record]]
compound = "COc1ccc(OC)c(CC(=O)c2ccc(O)c(C(=O)NCCc3ccc(F)cc3)c2)c1"
assayed_target = "HCT-116 colon"
recorded_endpoint = "TGI"
quantitative_readout = 19.9


Form: compound = CCC/C(Cl)=N/OC(=O)Nc1cccc(F)c1 ; TGI = 18.6

Recorded result, N#Cc1c(-c2ccccc2)cc(Nc2ccc(F)cc2)n2c1nc1ccccc12 , TGI: 6.06

Form field TGI, entry NC(N)=NCCCS(=O)(=O)Nc1ccc(Nc2c3ccccc3nc3cc([N+](=O)[O-])ccc23)cc1 : 63.5

Per the records, this compound ( C/C(=N\NC(=S)Nc1ccccc1)c1ccccn1 ) has TGI equal to 1.17
